- Test system: Neuregulin-1 EGF-like domain
- TEST DETAILS: small molecules binding NRG1 EGF domain – biochemical, small-molecule microarray, 635 nm fluorescence, primary screen (AID 1081);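 also: binding of the protein to compounds printed on small-molecule microarray slides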
- EXPERIMENTAL SETUP: higher = more signal
ENDPOINT LABEL: composite z-score
// no unit, no text: just the number

Some solved cases for reference:
In [3]: df
Out[3]:
                                   compound     endpoint_label  quantitative_readout
0  CN(C)c1ccc(C(O)C2C=CC3C(=O)N(Cc4ccccc4)C(=O)C3N2n2cnnc2)cc1 (stereo not drawn)  composite z-score                -0.103
1  COCCCNC(=O)[C@@]1(CCS(=O)(=O)c2ccccc2)COC(c2ccc(OCCCO)cc2)=N1  composite z-score                  1.28
2  CC(C)(C)N1CC=CC23O[C@@H]4C=CCCOC(=O)C4[C@H]2C(=O)N(CCCCCCO)[C@@H]3C1=O (stereo partly drawn)  composite z-score                  1.56
3  CN1C(=O)[C@@H]2[C@@H](CC(COc3ccccc3)=C3[C@@H](CCc4ccccc4)OB(O)C[C@@H]32)C1=O  composite z-score                  0.56
4  CCCN1C(=O)[C@]2(CCC(=O)OC(C)(C)C)N=C(c3ccc(OCCCO)cc3)O[C@@H]2c2ccccc21  composite z-score                  1.07

Note down composite z-score recorded for "CN(C)C(=O)[C@]1(Cc2ccccc2)N=C(c2ccc(OCCCO)cc2)O[C@@H]1c1ccccc1CN=[N+]=[N-]"
1.22

Annotate the compound "CN(C)CCCCNC(=O)[C@H]1C[C@H]2C(=O)N3CCC[C@H]3C(=O)N2[C@H]1c1cccc(OCCO)c1" with its measured composite z-score.
1.28

Look up composite z-score of "CCCC=C(CCC)[C@@H](NC(=O)c1ccc(C(F)(F)F)cc1)c1ccc(C(F)(F)F)cc1" and report it.
0.588

Values compiled from PubChem BioAssay.
